- Experiment Description: Confirmation screen for delayed death inhibitors of the malarial parasite plastid, 48 hour incubation; also: nearly all actives have a fitted effect of over 65% in size
- Experimental Context: P. falciparum-infected erythrocytes, luciferase growth; series mostly up to 28.7 µM
- Excerpt: The goal of this screen is to discover new antimalarial compounds that act by inhibiting the development of the apicoplast in the malarial parasite Plasmodium falciparum. The biochemical processes that make this organelle essential for erythrocytic stage parasites are not well understood. […] Growth inhibition is detected by a decrease in luciferase activity. […]
Among all 2,300 compounds or so, about 1,200 (52%) were called active. Roughly 34% stayed inconclusive and do not appear here. Calls follow the shape of the dose curve; as a rule, active = well fitted inhibition curve with a large enough effect; inconclusive = small, poorly fitted or top-dose-only effect, or effect the other way; inactive = no such curve, though single readings can be large or run the other way. So high a share suggests a set chosen from earlier hits. Some of the results follow.
Outcome codes: active, inactive

| Compound | Classification |
| --- | --- |
| CCOc1ccc(NC(=O)CC2C(=O)N(c3ccccc3)C(=O)N2CCOC)cc1 (stereo not given) | inactive |
| O=C(C[C@H]1C(=O)N(Cc2ccccc2)C[C@@H]1Cc1ccccc1)Nc1ccccc1 | active |
| CN(Cc1ccccc1Cl)C(=O)C1CCC(=O)N(CCc2cccc(F)c2)C1 (stereo not given) | active |
| Cc1ccc(-n2c(-c3ccc(Cl)cc3)c[n+]3c2CCC3)cc1 | active |
| CN(CCOc1ccccc1)C(=O)C1CCC(=O)N(CCN2CCOCC2)C1 (stereo not given) | inactive |

Sourced from PubChem BioAssay AID504850
